The measured values listed here are drawn from patent US20120189639A1.

Reported values of proliferation of naïve CD4+ T cells, mean, at 30.1 ng/mL Ab for individual entries
Target: T1, human GITR on naïve CD4+ T cells (human, UniProt Q9Y5U5 26-241)
T1 sequence: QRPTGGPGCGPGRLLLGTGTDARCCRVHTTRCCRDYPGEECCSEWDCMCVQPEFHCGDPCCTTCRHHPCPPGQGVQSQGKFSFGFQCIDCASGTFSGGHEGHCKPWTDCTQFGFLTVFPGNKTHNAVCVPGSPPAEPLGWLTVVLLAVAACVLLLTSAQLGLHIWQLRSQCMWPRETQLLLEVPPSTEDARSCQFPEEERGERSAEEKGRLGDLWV
Experiment: cell-based or functional assay
endpoint: proliferation of naïve CD4+ T cells, mean, at 30.1 ng/mL Ab

binder: 1D8 (antibody, V domains shown, Parental rodent anti-human GITR monoclonal antibody from a hybridoma; kappa VL; also called 1D8.B5) VH: QVTLKESGPGILKPSQTLSLTCSFSGFSLSTSGMGVGWIRQPSGKGLEWLAHIWWDDDKYYSPSLKSQLTISKDTSRNQVFLKITSLDTADTATYYCVRSYYYGSSGAMDYWGQGTSVTVSS VL: DIVMTQTPLSLPVSLGDQASISCRSSQSLVHSDGNTYLHWYLQKPGQSPKLLIYKVSKRFSGVPDRFSGSGSGTDFTLKISRVEAEDLGVYFCSQSTHVPPTFGGGTKLEIKR
observed value: 112000
//
binder: 9E5 (antibody, V domains shown, Parental rodent anti-human GITR monoclonal antibody from a hybridoma; kappa VL; also called 9E5.C1) VH: QVTLKESGPGILQPSQTLSLTCTFSGFSLSTYGVGVGWIRQPSGKGLEWLANIWWDDDNYYNPSLIHRLTVSKDTSNNQAFLKITNVDTAETATYYCAQIKEPRDWFFEFWGPGTMVSVSS VL: DIQMTQTPSSMPASLGERVTIFCRASQGVNNFLTWYQQKPDGTIKPLIFYTSNLQSGVPSRFSGSGSGTDYSLSISSLEPEDFAMYYCQQYHGFPNTFGAGTKLELKR
observed value: 83400
//
binder: 35D8 (antibody, V domains shown, Parental rodent anti-human GITR monoclonal antibody from a hybridoma; kappa VL; also called 35D8.B10) VH: EVQLQESGPSLVKPSQTLSLTCSVTGDSITSGYWNWIRKFPGNKLEYMGYISYSGSTYYNPSLRGRISITRDTSKSQYYLQLSSVTTEDTATYYCSRRHLGSGYGWFAYWGQGTLVTVSA VL: DIVMTQSHKFMSTSVGDRVSITCKASQDVNTAVAWYQQKPGQSPKLLIYWASTRHTGVPDRFTGSGSGTDYALTINSVQAEDLALYYCQQHSYTPPWTFGGGTKLEIRR
observed value: 95300
